Cited source for all entries: patent US20260355196A1

Target: PIP4K2C (Homo sapiens, UniProt Q8TBX8)
Sequence (Q8TBX8 whole entry): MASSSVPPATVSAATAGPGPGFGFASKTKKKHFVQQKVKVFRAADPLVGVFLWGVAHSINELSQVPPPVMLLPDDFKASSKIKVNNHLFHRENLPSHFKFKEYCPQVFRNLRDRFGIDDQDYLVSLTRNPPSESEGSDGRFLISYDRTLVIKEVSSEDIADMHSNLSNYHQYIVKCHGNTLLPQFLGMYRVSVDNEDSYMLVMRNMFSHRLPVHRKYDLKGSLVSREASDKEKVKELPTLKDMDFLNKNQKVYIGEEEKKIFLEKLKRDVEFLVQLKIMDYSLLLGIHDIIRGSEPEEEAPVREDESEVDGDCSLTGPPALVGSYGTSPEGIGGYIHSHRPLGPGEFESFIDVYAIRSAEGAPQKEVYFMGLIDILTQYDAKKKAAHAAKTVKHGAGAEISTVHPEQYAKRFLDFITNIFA
Test: HiBiT PIP4K2C degradation assay in MOLT-4 cells (endogenous PIP4K2C C-terminally tagged with HiBiT)
Type: cell-based
Parameters: untagged in primary human PBMCs and monocyte-derived dendritic cells
Settings: 24 hours incubation, MOLT-4, top concentration 10 micromolar; read-out: HiBIT-degradation MOLT4 PIP4k2C 24 hours DC50
measured-parameter: DC50

Known results for compounds:
O=C1CCC(Nc2ccc(C3CCN(C4CCN(CCC(=O)N5CCC(Nc6ncc(Cl)c(-c7cccc(-c8ccccc8)c7)n6)CC5)CC4)CC3)cc2)C(=O)N1 (stereo not shown): < 500 nM
O=C1CCC(N2Cc3cc(OC4CCN(CCN5CCN(C(=O)[C@H]6CCC[C@@H](Nc7ncc(Cl)c(-c8cccc(-c9ccccc9)c8)n7)C6)CC5)CC4)ccc3C2=O)C(=O)N1 (relative stereo): < 500 nM

Please state, for each entry, its recorded DC50.
1. O=C1CCC(Nc2ccc(C3CCN(CCN4CCN(C(=O)[C@H]5CCC[C@@H](Nc6ncc(Cl)c(-c7cccc(-c8ccccc8)c7)n6)C5)CC4)CC3)cc2)C(=O)N1 (relative stereo)
2. O=C1CCC(n2c(=O)oc3cc(N4CCC(CCN5CCC(C(=O)N[C@H]6CC[C@H](Nc7ncc(F)c(-c8cccc(-n9ccccc9=O)c8)n7)CC6)CC5)CC4)ccc32)C(=O)N1 (stereo partly shown)
3. Cn1nc(C2CCC(=O)NC2=O)c2ccc(C3CCN(CC(=O)N4CCC(O)(C(=O)N5CCC(Nc6ncc(Cl)c(-c7cccc(-c8ccc(F)cc8)c7)n6)CC5)CC4)CC3)cc21 (stereo not shown)
4. Cn1c(=O)n(C2CCC(=O)NC2=O)c2ccc(C3CCN(CC4CCN(CC(=O)N5CCC(Nc6ncc(F)c(-c7cccc(-c8ccccc8)c7)n6)CC5)CC4)CC3)cc21 (stereo not shown)
5. O=C1CCC(Nc2ccc(N3CCC(N4CCC(C(=O)N[C@H]5CC[C@H](Nc6ncc(Cl)c(-c7cccc(-c8ccc(F)cc8)c7)n6)CC5)CC4)CC3)cc2)C(=O)N1 (stereo partly shown)

Resp:
1. 500 to 1000 nM
2. 1000 to 5000 nM
3. < 500 nM
4. < 500 nM
5. < 500 nM

* * *

Molecular target: PIP4K2C (Homo sapiens, UniProt Q8TBX8)
Assay: HiBiT PIP4K2C degradation assay in MOLT-4 cells (endogenous PIP4K2C C-terminally tagged with HiBiT)
Assay type: cell-based
Set-up: untagged in primary human PBMCs and monocyte-derived dendritic cells
Conditions: 6 hours of incubation time, rather than 24 hours; MOLT-4, top concentration 10 micromolar; read-out: HiBIT-degradation MOLT4 PIP4k2C DC50 (6 hours, marked *)
I'd appreciate it if you could supply DC50 values for the items below.

Hello, I would appreciate it if you could give DC50 for each entry below.
1. O=C1CCC(Nc2ccc(N3CCN([C@H]4CC[C@H](C(=O)N[C@H]5CC[C@H](Nc6ncc(F)c(-c7cccc(N8CCCOC8=O)c7)n6)CC5)CC4)CC3)c(F)c2)C(=O)N1 (stereo partly drawn) [Compound 424]
2. O=C1CCC(Nc2ccc(C3CCN(CC4CCN(C(=O)[C@H]5CC[C@H](Nc6ncc(F)c(-c7cccc(C8CC8)c7)n6)CC5)CC4)CC3)c(F)c2)C(=O)N1 (stereo partly drawn) [Compound 554]
3. Cc1ccn(-c2cccc(-c3nc(N[C@H]4CC[C@H](C(=O)N5CCC(CN6CCN(c7ccc(NC8CCC(=O)NC8=O)cc7F)CC6)CC5)CC4)ncc3F)c2)c(=O)c1 (stereo partly drawn) [Compound 471]

Resp:
< 500 nM
< 500 nM
< 500 nM
